# procedureSummary: qHTS profiling of the MIPE4 collection as inhibitors of Plasmodium falciparum (HB3) proliferation (AID 743347)
# assayContext: P. falciparum HB3 in erythrocytes, SYBR Green DNA, 72 h; at 28.5 µM (top of the series) unless noted
Positions of bridges follow the written chain, without caps; N, C: chain ends. Non-standard residues stand in square brackets, D forms with d. Residues, ends and D or L forms follow the SMILES beside them. ξ: configuration not given here. *: point of attachment. Octanoyl(6-Me) = CCC(C)CCCCC(=O)*; ξThr(3R) = C[C@@H](O)C(N)C(=O)O; dDab = NCC[C@@H](N)C(=O)O; Dab = NCC[C@H](N)C(=O)O
Mark Met only for growth, % of control values smaller than 7%; exact matches and larger values are Not met.

Prompt line: Please let me know if "CC(C)NC[C@@H](C(=O)N1CCN(c2ncnc3c2[C@H](C)C[C@H]3O)CC1)c1ccc(Cl)cc1" shows growth, % of control below 7%.
Response line: Met

Prompt line: Strictly below 7% in growth, % of control? "O=C1NC(=O)C(=Cc2ccc3nccc(-c4ccncc4)c3c2)S1"
Response line: Met

Prompt line: hey, is growth, % of control for "CN(C)CCN1C(=O)c2cccc3cc(N)cc(c23)C1=O" lower than 7% or not?
Response line: Not met

Prompt line: Criterion: growth, % of control strictly below 7%. Is it met by "O=C(C=CC=Cc1ccc2c(c1)OCO2)N1CCCCC1" ?
Response line: Not met

Prompt line: Does "COc1cc(C)c(C=CC(C)=CC=CC(C)=CC(=O)O)c(C)c1C" have growth, % of control strictly under 7%?
Response line: Not met

Prompt line: Hello, is growth, % of control of the following molecule strictly smaller than 7%? "Cc1nc(NC(=O)N2CCC[C@@H]2C(N)=O)sc1-c1ccnc(C(C)(C)C(F)(F)F)c1"
Response line: Met

Prompt line: Strictly below 7% in growth, % of control? "COc1cccc2c1C(=O)c1c(O)c3c(c(O)c1C2=O)C[C@@](O)(C(C)=O)C[C@H]3O[C@H]1C[C@H](N)[C@H](O)[C@H](C)O1"
Response line: Met

Prompt line: Criterion: growth, % of control strictly below 7%. Is it met by O=C(O)CCCCC(CCSCc1ccccc1)SCc1ccccc1 (configuration not stated) ?
Response line: Not met

Prompt line: Criterion: growth, % of control strictly below 7%. Is it met by "CC(C)(N)c1ccc(-c2nc3ccccc3nc2-c2ccccc2)cc1" ?
Response line: Not met

Prompt line: State whether 7% exceeds growth, % of control recorded for C[C@H]1O[C@H](O[C@H]2[C@H](O)[C@@H](O)[C@@H](O[C@H]3[C@H](O)[C@@H](O)C(O)O[C@H]3CO)O[C@H]2CO)[C@H](O)[C@@H](O)[C@H]1N[C@H]1C=C(CO)[C@@H](O)[C@H](O)[C@@H]1O (some centres not stated) .
Response line: Not met

Prompt line: # check: growth, % of control < 7% for "O=C(CCCCCCC(=O)Nc1cccnc1)NO"
Response line: Met

Prompt line: I'd appreciate it if you could check whether CCC(C)CCCCC(=O)N[C@@H](CCN)C(=O)NC(C(=O)N[C@H](CCN)C(=O)N[C@@H]1CCNC(=O)C([C@@H](C)O)NC(=O)[C@@H](CCN)NC(=O)[C@@H](CCN)NC(=O)[C@@H](CC(C)C)NC(=O)[C@H](Cc2ccccc2)NC(=O)[C@H](CCN)NC1=O)[C@@H](C)O (stereo partly drawn) ({Octanoyl(6-Me)}-[Dab][ξThr(3R)][dDab][dDab][Dab]F[dL][dDab][dDab][ξThr(3R)]; lactam 4-C) has growth, % of control smaller than 7%.
Response line: Not met

Prompt line: For this molecule, is growth, % of control lower than 7%? "OC[C@@H](O)[C@@H](O)[C@H](O)[C@@H](O)CO"
Response line: Not met

Prompt line: Say whether its growth, % of control is strictly beneath 7%. Entry: "N#CC(=C(N)Sc1ccc(N)cc1)c1ccccc1C(F)(F)F"
Response line: Not met

Prompt line: Does "Cn1cc(-c2ccc3ncc(Cc4ccc5ncccc5c4)n3n2)cn1" have growth, % of control strictly under 7%?
Response line: Not met

Prompt line: Please check: growth, % of control for "CCN(CC)Cc1ccc2cc(COC(=O)Nc3ccc(C(=O)NO)cc3)ccc2c1" , strictly under 7% or not?
Response line: Not met

====

# studySystem: Cytochrome P450 2D6 (Homo sapiens)
# procedureSummary: Cytochrome P450 family 2 subfamily D member 6 (CYP2D6) small molecule antagonists: luciferase biochemical (cell-free) qHTS assay (AID 1645840); further: nearly all actives have a fitted effect of over 55% in size
# assayContext: P450-Glo CYP2D6 enzyme, luciferin luminescence, 1 h; series mostly up to 57.4 µM
Inconclusive results are not listed. Activity calls are given as the source filed them. Calls follow the shape of the dose curve; as a rule, active = well fitted inhibition curve with a large enough effect in the repeat runs; inconclusive = weak or mixed curves; inactive = flat fitted curve, though single readings scatter.
Allowed answers: active, inactive

Prompt line: Record request — test call for "Cn1cnc2c(F)c(Nc3ccc(Br)cc3F)c(C(=O)NOCCO)cc21"
Response line: inactive

Prompt line: Write down the call the test reported for this compound. Item: Oc1cc2c(cc1O)C1c3ccc(O)c(O)c3OCC1(O)C2 (stereo not given)
Response line: inactive

Prompt line: Hi team, can someone confirm the assay call for "Cc1cc(O)c2c(c1)C(=O)c1cccc(O)c1C2=O" ?
Response line: inactive

Prompt line: Which outcome was entered for the compound CC(O)(C#Cc1ccc2c(c1)N(c1nc(N)ncc1Cl)CC2)c1nccs1 (stereo not given) in this test?
Response line: active

Prompt line: // param item: O=C1CSC(=O)N1C(CCc1ccncc1)COc1ccc(-c2cccc([N+](=O)[O-])c2)cc1 (stereo not given) ; yields the recorded call
Response line: inactive

Prompt line: What is the recorded call for this compound in the test? "CCn1c(=O)c2c(nc(C=Cc3ccc(OC)c(OC)c3)n2C)n(CC)c1=O"
Response line: inactive

Prompt line: Answer briefly: the call reported for "CCCCCCCCCCCCCCCC(=O)OC[C@@H](NC(=O)C(Cl)Cl)[C@H](O)c1ccc([N+](=O)[O-])cc1" in this assay.
Response line: inactive

Prompt line: Each compound tested received a call. Report the one for "Cc1ncc(-c2ccnc(Nc3ccc(S(C)(=O)=O)cc3)n2)n1C(C)C" .
Response line: inactive

Prompt line: # lookup: test call for "C[C@@H](NCc1cc2ccccc2[nH]1)c1cccc2ccccc12"
Response line: active

Prompt line: Call for entry "COc1cc(C(C)C)c(Oc2cnc(NC(CO)CO)nc2N)cc1I" :
Response line: active

====

# procedureSummary: Quantitative High-Throughput drug screen in 47 multiple myeloma cell lines against the NCATS MIPE library collection: JJN3_DSMZ cell viability assay (AID 1918966; further: nearly all actives have a fitted effect of over 50% in size; further: potency means the concentration at half of the fitted maximal effect)
# assayContext: JJN3 myeloma cells viability, CellTiter-Glo ATP, 48 h; series mostly up to 45.8 µM
Results filed as inconclusive are left out. Activity calls are given as the source filed them. Calls come from the whole dose curve; as a rule, active = well fitted cell-killing curve with a large enough effect; inconclusive = small, poorly fitted or top-dose-only effect, or effect the other way; inactive = no such curve, though single readings can be large or run the other way.
recordedEndpoint: Potency

The cases that follow already have their Potency on record.
compound: C[C@@H](Oc1ccc2[nH]nc(C=Cc3cnn(CCO)c3)c2c1)c1c(Cl)cncc1Cl
observed: 8.33 µM (active)
//
compound: CNC(=O)c1ccc(Nc2cc(Nc3ccccc3S(=O)(=O)C(C)C)c3cc[nH]c3n2)nc1
observed: 16.6 µM (active)
//
compound: C[C@H](NC(=O)C(C#N)=Cc1cccc(Br)n1)c1ccccc1
observed: 4.18 µM (active)
//
compound: O=C(c1ccc(F)cc1)N1CCC[C@H](c2nc(-c3ccc(F)cc3)no2)C1
observed: inactive
//
compound: C=CC[C@@H]1C=C(C)C[C@H](C)C[C@H](OC)[C@H]2O[C@@](O)(C(=O)C(=O)N3CCCC[C@H]3C(=O)O[C@H](C(C)=C[C@@H]3CC[C@H](O)[C@H](OC)C3)[C@@H](C)[C@@H](O)CC1=O)[C@@H](C)C[C@@H]2OC
observed: 0.662 µM (active)
//
compound: O=C(NNC(=O)c1ccc(CNS(=O)(=O)c2ccc(F)c(Cl)c2)cc1)c1ccccc1
observed: inactive
//
compound: Cc1ccc(O)c(C(CCN(C(C)C)C(C)C)c2ccccc2)c1 (stereo unspecified)
observed: inactive
//
compound: C[C@]12CC[C@@H]3c4ccc(O)cc4CC[C@H]3[C@H]1CC[C@H]2O
observed: 23.5 µM (active)
//
compound: Nc1ccn(C[C@@H](CO)OCP(=O)(O)O)c(=O)n1
observed: inactive
//
compound: O=C(C=CC=Cc1ccc2c(c1)OCO2)N1CCCCC1
observed: inactive

Prompt line: Which Potency is listed for "CCN(CC)CCNC(=O)c1c(C)[nH]c(C=C2C(=O)Nc3ccc(F)cc32)c1C" ?
Response line: 6.05 µM (active)

Prompt line: I have this compound here, "COc1cccc2c1C(=O)c1c(O)c3c(c(O)c1C2=O)C[C@@](O)(C(=O)CO)C[C@H]3O[C@H]1C[C@H](N)[C@H](O)[C@H](C)O1" , and I need its recorded Potency.
Response line: 0.132 µM (active)

Prompt line: Any idea what its Potency is? The compound is "CC(C=CC=C(C)C=CC1=C(C)CCCC1(C)C)=CC=CC=C(C)C=CC=C(C)C=CC1=C(C)CCCC1(C)C"
Response line: 14.8 µM (active)

Prompt line: Fill in: Potency of "Cn1cc(-c2cnn3c(N)c(Br)c([C@H]4CCCNC4)nc23)cn1" is ___
Response line: 0.59 µM (active)

Prompt line: Field request: Potency | item: "Oc1ccc(-c2ccc(-c3cc(Nc4cccc(CNC5CC5)c4)n[nH]3)cc2)c(O)c1"
Response line: 1.32 µM (active)

Prompt line: Fill in the blank: the reported Potency of "COc1ccc(C(C)=O)c(O)c1" is ____.
Response line: inactive

Prompt line: Query (compound): C[C@]12CCC(=O)C=C1[C@@H]1CC1[C@H]1[C@H]3[C@@H]4C[C@H]4[C@@]4(CCC(=O)O4)[C@@]3(C)CC[C@H]12 (stereo partly specified) ; field requested: Potency
Response line: inactive

Prompt line: Recorded Potency for "N#Cc1ccc(COC[C@H]2O[C@@H](n3c(NCc4ccc(Cl)c(Cl)c4)nc4c(N)ncnc43)[C@@H](O)[C@@H]2O)cc1" , please?
Response line: 0.469 µM (active)

Prompt line: Which Potency reading was recorded for the compound "Cc1cc(O)c2c(c1)C(=O)c1cccc(O)c1C2=O" ?
Response line: inactive

Prompt line: State the recorded Potency for this entry: "C=CC(=O)Nc1cc(NC(=O)c2ccc(C)c(NC(=O)c3ccno3)c2)cc(C(F)(F)F)c1"
Response line: 18.7 µM (active)

Prompt line: Please give the measured Potency for this compound: "FC(F)(F)c1ccc(Nc2nc3ccc(Oc4ccnc(-c5ncc(C(F)(F)F)[nH]5)c4)cc3[nH]2)cc1"
Response line: 20.9 µM (active)

Prompt line: Would you kindly share the measured Potency for "CC(C=CC1=C(C)CCCC1(C)C)=CC=CC(C)=CC(=O)Nc1ccc(O)cc1" ?
Response line: 21.5 µM (active)

Prompt line: Quick one: Potency for CC(Cc1ccc(O)c(O)c1)(NN)C(=O)O (stereo unspecified) ?
Response line: 23.5 µM (active)

Prompt line: What value of measured Potency is listed for "COc1cc2c(cc1OC)[C@@H]1C(=O)c3ccc4c(c3O[C@@H]1CO2)C=CC(C)(C)O4" ?
Response line: 9.35 µM (active)

Prompt line: Item under review: "CCS(=O)(=O)Nc1ccc2[nH]c(O)c(C(=Nc3ccc(CN4CCCCC4)cc3)c3ccccc3)c2c1" . Reported Potency?
Response line: 0.743 µM (active)

Prompt line: Could you share which Potency value was measured for "CC(=O)OC[C@@H]1O[C@@H](n2ccc(=O)[nH]c2=O)[C@H](OC(C)=O)[C@H]1OC(C)=O" ?
Response line: inactive

Prompt line: Item under review: "FC(F)c1nc2ccccc2n1-c1nc(N2CCOCC2)nc(N2CCOCC2)n1" . Reported Potency?
Response line: 0.743 µM (active)
